Target: T1, DREB2A (Arabidopsis thaliana (Mouse-ear cress), UniProt O82132)
T1 chain: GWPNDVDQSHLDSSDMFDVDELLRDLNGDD
Assay: ITC 25 C
pKd: −log10 of the molar value.

- binder: "AtRCD1_RST (protein) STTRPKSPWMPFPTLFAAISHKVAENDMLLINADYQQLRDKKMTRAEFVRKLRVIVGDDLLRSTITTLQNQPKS"
  pKd: 7.80
- binder: "AtTAF4_RST (protein) NPINRNPKQVPFAALLPTLMNQLDKDRALQLRTLYARLKKNEIPKEGFTRHMKDIVGDQMLRMAVSKLQQVNY"
  pKd: 6.13
- binder: "HsTAF4_TAFH (protein) TSSAATETMENVKKCKNFLSTLIKLASSGKQSTETAANVKELVQNLLDGKIEAEDFTSRLYRELNSSPQPYLVPFLKRSLPALRQLTPDSAAFIQQS"
  pKd: 6.96
